- Tested on: K.pneumoniae ATCC10031
- measurement-description: In vitro antibacterial activity, minimum inhibitory concentration
- Format: cell-based
- condition-info: Klebsiella pneumoniae; K.pneumoniae ATCC10031; read-out: Minimum Inhibitory Concentration (MIC)
parameter: log10 MIC (log10 of the value in ng/mL)
Values below are the log10 of the recorded MIC, with ng/mL as the unit.

Below, each entry is followed by its recorded log10 MIC result.
The recorded log10 MIC for CO/N=C(\C(=O)N[C@@H]1C(=O)N2C(C(=O)[O-])=C(C[n+]3ccc4c(c3)NC(=C[N+](=O)[O-])N4)CS[C@H]12)c1csc(N)n1 is 1.40

The recorded log10 MIC for CO/N=C(\C(=O)N[C@@H]1C(=O)N2C(C(=O)[O-])=C(C[n+]3ccc4[nH]c(=O)[nH]c4c3)CS[C@H]12)c1nsc(N)n1 is 0.60

The recorded log10 MIC for CO/N=C(\C(=O)N[C@@H]1C(=O)N2C(C(=O)[O-])=C(C[n+]3ccc4c(c3)[nH]c(=O)n4C)CS[C@H]12)c1nsc(N)n1 is 0.85

The recorded log10 MIC for CO/N=C(\C(=O)N[C@@H]1C(=O)N2C(C(=O)[O-])=C(C[n+]3cccc4c3CCC4)CS[C@H]12)c1csc(N)n1 [CPR, Cefpirome, reference compound] is 1.11

The recorded log10 MIC for CO/N=C(\C(=O)N[C@@H]1C(=O)N2C(C(=O)[O-])=C(C[n+]3ccc4[nH]c(=NC#N)[nH]c4c3)CS[C@H]12)c1csc(N)n1 is 0.85

Others:
The recorded log10 MIC for CO/N=C(\C(=O)N[C@@H]1C(=O)N2C(C(=O)[O-])=C(C[n+]3ccc4c(c3)NC(=C[N+](=O)[O-])N4)CS[C@H]12)c1nsc(N)n1 is 1.70

----------
Reported MIC by item:
- System: P.aeruginosa C4070
- measurement-description: In vitro antibacterial activity, minimum inhibitory concentration
- Type: cell-based
- condition-info: Pseudomonas aeruginosa; P.aeruginosa C4070; read-out: Minimum Inhibitory Concentration (MIC)
Report the value in µg/mL with no unit label.

The recorded MIC for CO/N=C(\C(=O)N[C@@H]1C(=O)N2C(C(=O)[O-])=C(C[n+]3ccc4[nH]c(=NC#N)[nH]c4c3)CS[C@H]12)c1nsc(N)n1 is 12.5

Moving on to another compound below.
The recorded MIC for Nc1nc(/C(=N/OCC(=O)O)C(=O)N[C@@H]2C(=O)N3C(C(=O)[O-])=C(C[n+]4ccc5[nH]c(=O)[nH]c5c4)CS[C@H]23)ns1 is 6.25

----------
- System: P.aeruginosa C4070
- measurement-description: In vitro antibacterial activity, minimum inhibitory concentration
- Type: cell-based
- condition-info: Pseudomonas aeruginosa; P.aeruginosa C4070; read-out: Minimum Inhibitory Concentration (MIC)
- Description: As reference compounds, Cefotaxime (CTX), Ceftazidime (CAZ) and Cefpirome (CPR) were employed.
Reported MIC by item:
Report the value in µg/mL with no unit label.

The recorded MIC for CO/N=C(\C(=O)N[C@@H]1C(=O)N2C(C(=O)[O-])=C(C[n+]3cccc4c3CCC4)CS[C@H]12)c1csc(N)n1 [CPR, Cefpirome, reference compound] is 6.25

The recorded MIC for Nc1nc(/C(=N/O)C(=O)N[C@@H]2C(=O)N3C(C(=O)[O-])=C(C[n+]4ccc5[nH]c(=O)[nH]c5c4)CS[C@H]23)ns1 is 50

The recorded MIC for CO/N=C(\C(=O)N[C@@H]1C(=O)N2C(C(=O)[O-])=C(C[n+]3ccc4c(c3)[nH]c(=O)n4C)CS[C@H]12)c1nsc(N)n1 is 3.13

----------
- Tested on: P.aeruginosa ATCC10145
- measurement-description: In vitro antibacterial activity, minimum inhibitory concentration
- Assay type: cell-based
- condition-info: Pseudomonas aeruginosa; P.aeruginosa ATCC10145; read-out: Minimum Inhibitory Concentration (MIC)
Reported log10(MIC) by item:
Values below are the log10 of the recorded MIC, with µg/mL as the unit.

The recorded log10(MIC) for CO/N=C(\C(=O)N[C@@H]1C(=O)N2C(C(=O)[O-])=C(C[n+]3ccc4c(c3)NC(=C[N+](=O)[O-])N4)CS[C@H]12)c1csc(N)n1 is 1.70

The recorded log10(MIC) for Nc1nc(/C(=N/O)C(=O)N[C@@H]2C(=O)N3C(C(=O)[O-])=C(C[n+]4ccc5[nH]c(=O)[nH]c5c4)CS[C@H]23)ns1 is 1.10

The recorded log10(MIC) for CO/N=C(\C(=O)N[C@@H]1C(=O)N2C(C(=O)[O-])=C(C[n+]3ccc4[nH]c(=NC#N)[nH]c4c3)CS[C@H]12)c1csc(N)n1 is 1.10

The recorded log10(MIC) for Nc1nc(/C(=N/OCC(=O)O)C(=O)N[C@@H]2C(=O)N3C(C(=O)[O-])=C(C[n+]4ccc5[nH]c(=O)[nH]c5c4)CS[C@H]23)ns1 is 0.50

The recorded log10(MIC) for CO/N=C(\C(=O)N[C@@H]1C(=O)N2C(C(=O)O)=C(COC(C)=O)CS[C@H]12)c1csc(N)n1 [CTX, Cefotaxime, reference compound] is 1.40

Moving on to another compound below.
The recorded log10(MIC) for Nc1nc(/C(=N/OCF)C(=O)N[C@@H]2C(=O)N3C(C(=O)[O-])=C(C[n+]4ccc5[nH]c(=O)[nH]c5c4)CS[C@H]23)ns1 is 0.19

----------
- Test system: P.aeruginosa C4070
- measurement-description: In vitro antibacterial activity, minimum inhibitory concentration
- Type: cell-based
- condition-info: Pseudomonas aeruginosa; P.aeruginosa C4070; read-out: Minimum Inhibitory Concentration (MIC)
Reported MIC by item:
Report the value in µg/mL with no unit label.

The recorded MIC for Nc1nc(/C(=N/OCF)C(=O)N[C@@H]2C(=O)N3C(C(=O)[O-])=C(C[n+]4ccc5[nH]c(=O)[nH]c5c4)CS[C@H]23)ns1 is 3.13

The recorded MIC for CO/N=C(\C(=O)N[C@@H]1C(=O)N2C(C(=O)O)=C(COC(C)=O)CS[C@H]12)c1csc(N)n1 [CTX, Cefotaxime, reference compound] is 50

The recorded MIC for CO/N=C(\C(=O)N[C@@H]1C(=O)N2C(C(=O)[O-])=C(C[n+]3ccc4[nH]c(=O)[nH]c4c3)CS[C@H]12)c1nsc(N)n1 is 1.56

Moving on to another compound below.
The recorded MIC for CO/N=C(\C(=O)N[C@@H]1C(=O)N2C(C(=O)[O-])=C(C[n+]3ccc4[nH]c(=NC#N)[nH]c4c3)CS[C@H]12)c1csc(N)n1 is 12.5

----------
- Test system: K.pneumoniae C1040
- measurement-description: In vitro antibacterial activity, minimum inhibitory concentration
- Assay type: cell-based
- condition-info: Klebsiella pneumoniae; K.pneumoniae C1040; read-out: Minimum Inhibitory Concentration (MIC)
parameter: log10 MIC (log10 of the value in µg/mL)
Values below are the log10 of the recorded MIC, with µg/mL as the unit.

The recorded log10 MIC for CO/N=C(\C(=O)N[C@@H]1C(=O)N2C(C(=O)[O-])=C(C[n+]3cccc4c3CCC4)CS[C@H]12)c1csc(N)n1 [CPR, Cefpirome, reference compound] is -1.60

The recorded log10 MIC for CO/N=C(\C(=O)N[C@@H]1C(=O)N2C(C(=O)[O-])=C(C[n+]3ccc4c(c3)NC(=C[N+](=O)[O-])N4)CS[C@H]12)c1nsc(N)n1 is -1.30

The recorded log10 MIC for CO/N=C(\C(=O)N[C@@H]1C(=O)N2C(C(=O)[O-])=C(C[n+]3ccc4c(c3)[nH]c(=O)n4C)CS[C@H]12)c1nsc(N)n1 is -2.15

The recorded log10 MIC for Nc1nc(/C(=N/OCF)C(=O)N[C@@H]2C(=O)N3C(C(=O)[O-])=C(C[n+]4ccc5[nH]c(=O)[nH]c5c4)CS[C@H]23)ns1 is -2.40

Others:
The recorded log10 MIC for Nc1nc(/C(=N/OCC(=O)O)C(=O)N[C@@H]2C(=O)N3C(C(=O)[O-])=C(C[n+]4ccc5[nH]c(=O)[nH]c5c4)CS[C@H]23)ns1 is -1.30

The recorded log10 MIC for CO/N=C(\C(=O)N[C@@H]1C(=O)N2C(C(=O)[O-])=C(C[n+]3ccc4[nH]c(=NC#N)[nH]c4c3)CS[C@H]12)c1csc(N)n1 is -1.60

The recorded log10 MIC for CO/N=C(\C(=O)N[C@@H]1C(=O)N2C(C(=O)O)=C(COC(C)=O)CS[C@H]12)c1csc(N)n1 [CTX, Cefotaxime, reference compound] is -1.60

----------
Reported MIC by item:
- System: S.aureus Smith
- measurement-description: In vitro antibacterial activity, minimum inhibitory concentration
- Format: cell-based
- condition-info: Staphylococcus aureus; S.aureus Smith; read-out: Minimum Inhibitory Concentration (MIC)
Report the value in µg/mL with no unit label.

Below, each entry is followed by its recorded MIC result.
# CO/N=C(\C(=O)N[C@@H]1C(=O)N2C(C(=O)[O-])=C(C[n+]3ccc4c(c3)NC(=C[N+](=O)[O-])N4)CS[C@H]12)c1nsc(N)n1 with S.aureus Smith: MIC is 3.13

# CO/N=C(\C(=O)N[C@@H]1C(=O)N2C(C(=O)[O-])=C(C[n+]3ccc4[nH]c(=O)[nH]c4c3)CS[C@H]12)c1nsc(N)n1 with S.aureus Smith: MIC is 1.56

# Nc1nc(/C(=N/O)C(=O)N[C@@H]2C(=O)N3C(C(=O)[O-])=C(C[n+]4ccc5[nH]c(=O)[nH]c5c4)CS[C@H]23)ns1 with S.aureus Smith: MIC is 6.25

# CO/N=C(\C(=O)N[C@@H]1C(=O)N2C(C(=O)O)=C(COC(C)=O)CS[C@H]12)c1csc(N)n1 [CTX, Cefotaxime, reference compound] with S.aureus Smith: MIC is 1.56

# Nc1nc(/C(=N/OCC(=O)O)C(=O)N[C@@H]2C(=O)N3C(C(=O)[O-])=C(C[n+]4ccc5[nH]c(=O)[nH]c5c4)CS[C@H]23)ns1 with S.aureus Smith: MIC is 3.13

Others:
# Nc1nc(/C(=N/OCF)C(=O)N[C@@H]2C(=O)N3C(C(=O)[O-])=C(C[n+]4ccc5[nH]c(=O)[nH]c5c4)CS[C@H]23)ns1 with S.aureus Smith: MIC is 1.56
